Source listed as patent US20240368181A1.

# System: DMS-114 (FGFR1 overexpression) cells
# EXPERIMENT_SUMMARY: cell proliferation assay (CellTiterGlo), DMS-114 cells
# Format: cell-based
# CONDITION: Homo sapiens, DMS-114, 72 h
PROPERTY_MEASURED: IC50

Below are worked cases with known answers.
Cc1nc2ccc(Oc3ccc4ncc(-c5cnn([C@@H](C)C6CC(F)(F)C6)c5)nc4c3Cl)c(F)c2[nH]1 [Compound 108]	100 to 400 nM
Cc1nc2ccc(Oc3ccc4ncc(-c5cnn([C@H]6C[C@@H](N7C[C@H]8C[C@@H]7CO8)C6)c5)nc4c3Cl)cc2[nH]1 [Compound 207]	100 to 400 nM

**Query** Give its IC50 value. Item: Cc1nc2ccc(Oc3ccc4ncc(-c5cnn(C(C)(C)C(=O)O)c5)nc4c3Cl)c(F)c2[nH]1 [Compound 115]
**Result** ≥ 400 nM

**Query** IC50 for Cc1nc2ccc(Oc3ccc4ncc(-c5cnn(C[C@@H](C)O)c5)nc4c3Cl)c(F)c2[nH]1 [Compound 130] ?
**Result** 100 to 400 nM

**Query** So what does the record say about IC50 for Cc1nc2ccc(Oc3ccc4ncc(-c5cn(CC6CC(F)(F)C6)nc5C)nc4c3Cl)cc2[nH]1 [Compound 276] ?
**Result** ≥ 400 nM

**Query** What measured IC50 goes with CO[C@H]1CC[C@@H](Cn2cc(-c3cnc4ccc(Oc5ccc6nc(C)[nH]c6c5)c(Cl)c4n3)cn2)CC1 [Compound 336] ?
**Result** ≥ 400 nM

**Query** Quick one: IC50 of Cc1nc2ccc(Oc3ccc4ncc(-c5cnn(CC6CC(F)(F)C6)c5)nc4c3C)cc2[nH]1 [Compound 302] ?
**Result** ≥ 400 nM

**Query** State the recorded IC50 for this entry: Cc1nc2ccc(Oc3ccc4ncc(-c5cnn(C6CC7(C6)CC(F)(F)C7)c5)nc4c3Cl)cc2[nH]1 [Compound 101]
**Result** ≥ 400 nM

**Query** Find the recorded IC50 belonging to Cc1nc2cc(F)c(Oc3ccc4ncc(-c5cnn(CCO)c5)nc4c3Cl)cc2[nH]1 [Compound 247] and report it.
**Result** ≥ 400 nM
